System: HSkMC (human skeletal muscle cells)
ASSAY_PROTOCOL: cytotoxicity call (relative viability < 0.9)
CONDITIONS_USED: 10 µM
Hit rate of the full screen: of about 39,000 compounds, about 1,500 (3.8%) were called active. The entries come from a sample that favours actives as a whole.
Respond only with the outcome that fits, drawn from Yes for active, No for inactive

MOLECULE	LABEL
CC(C)NC(=O)Nc1ccc2c(c1)C(=O)N([C@@H](C)CO)C[C@@H](C)[C@H](CN(C)S(=O)(=O)c1cn(C)cn1)OCCCC[C@@H](C)O2	No
C[C@H](CO)N1C[C@H](C)[C@H](CN(C)Cc2ccc(C(F)(F)F)cc2)Oc2ccc(NC(=O)Nc3ccc4c(c3)OCO4)cc2C1=O	No
C[C@@H]1CN([C@@H](C)CO)C(=O)c2cc(NC(=O)Nc3ccc4c(c3)OCO4)ccc2O[C@H]1CN(C)Cc1ccc(C(F)(F)F)cc1	Yes
C[C@H]1CN([C@@H](C)CO)C(=O)c2cc(NC(=O)Nc3ccc4c(c3)OCO4)ccc2O[C@H]1CN(C)Cc1ccc(C(F)(F)F)cc1	No
C[C@H](CO)N1C[C@H](C)[C@@H](CN(C)Cc2ccc(C(F)(F)F)cc2)Oc2ccc(NC(=O)Nc3ccc4c(c3)OCO4)cc2C1=O	No

Incoming: In this assay, the call recorded for CC1C=CC=CC=CC=CC=CC=CC=CC(OC2OC(C)C(O)C(N)C2O)CC(O)C(C(=O)O)C(O)CC(=O)CC(O)CC(O)CC(O)CC(=O)CCCC(=O)CC(=O)OC1C(C)CC(C)C(O)CC(=O)c1ccc(N)cc1 (stereo unspecified) was what?
Outgoing: Yes
